target: human plasma kallikrein (Homo sapiens); test: Kallikrein inhibition assay utilizing quenched AMC peptide substrate; conditions: read-out: Plasma kallikrein (PK) IC50
Sequence (P03952 391-638 limits assumed): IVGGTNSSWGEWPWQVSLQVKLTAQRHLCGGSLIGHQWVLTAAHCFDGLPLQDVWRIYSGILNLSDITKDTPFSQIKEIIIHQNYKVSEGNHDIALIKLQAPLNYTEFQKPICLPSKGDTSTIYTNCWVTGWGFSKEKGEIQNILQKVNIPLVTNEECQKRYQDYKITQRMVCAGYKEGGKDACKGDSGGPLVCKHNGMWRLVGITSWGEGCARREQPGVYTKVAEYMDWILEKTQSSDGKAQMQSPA
Sequence (P03952 20-390 partner limits assumed): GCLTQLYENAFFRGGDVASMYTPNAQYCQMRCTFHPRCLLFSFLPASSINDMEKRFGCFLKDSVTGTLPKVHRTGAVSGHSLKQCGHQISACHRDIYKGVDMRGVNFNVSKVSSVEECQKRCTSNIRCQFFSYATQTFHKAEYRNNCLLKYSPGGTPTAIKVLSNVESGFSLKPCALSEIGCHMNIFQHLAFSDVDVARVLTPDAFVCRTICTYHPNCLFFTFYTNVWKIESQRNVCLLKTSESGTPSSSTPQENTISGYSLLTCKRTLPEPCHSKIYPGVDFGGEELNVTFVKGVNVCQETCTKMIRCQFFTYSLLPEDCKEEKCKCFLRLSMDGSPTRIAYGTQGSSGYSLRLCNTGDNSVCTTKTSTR
OBSERVED PROPERTY: IC50 (nM)

Query string: Dear colleague, I am looking for the recorded IC50 of the following compound: [2H]C([2H])(O)c1nccc(-c2cnc([C@@H]3CCC4([2H])CC(c5c(-n6cnnn6)ccc(Cl)c5F)=CC(=O)N34)[nH]2)c1F (single isomer, unassigned)
Result string: 34

Query string: Dear colleague, I am looking for the recorded IC50 of the following compound: O=C(O)c1nccc(-c2cnc([C@@H]3CC[C@@H]4CC(c5c(-n6cnnn6)ccc(Cl)c5F)=CC(=O)N43)[nH]2)c1F
Result string: 11

1 = [2H]C1([2H])C(c2c(-n3cnnn3)ccc(Cl)c2F)=CC(=O)N2[C@H](c3ncc(-c4ccnc(CO)c4F)[nH]3)CC[C@@]21[2H] (single isomer, unassigned)
2 = [2H]c1nnnn1-c1ccc(Cl)c(F)c1C1=CC(=O)N2[C@@H](CC[C@@H]2c2ncc(-c3ccnc(C([2H])([2H])O)c3F)[nH]2)C1 (stereo in doubt)
Query string: Lab note: check whether 1 or 2 has the lower measured IC50. Field: selected label. Fill in the label of the entry you choose.
Result string: 1

----------
test: Rat PK study; format: in vivo, Sprague-Dawley rats; details: male, Sprague-Dawley, plasma, PO, 0.5% HPMC at 10 mg/kg
OBSERVED PROPERTY: Cmax (ng/mL)
Just the number please, in ng/mL, no unit attached.

Query string: Dear colleague, I am looking for the recorded Cmax of the following compound: O=C1C=C(c2c(-n3cnnn3)ccc(Cl)c2F)C[C@H]2CC[C@@H](c3ncc(-c4ccnc(CO)c4F)[nH]3)N12 [Compound of formula (I-A)]
Result string: 3770

----------
target: UniProt:P10632
Sequence (P10632 whole entry): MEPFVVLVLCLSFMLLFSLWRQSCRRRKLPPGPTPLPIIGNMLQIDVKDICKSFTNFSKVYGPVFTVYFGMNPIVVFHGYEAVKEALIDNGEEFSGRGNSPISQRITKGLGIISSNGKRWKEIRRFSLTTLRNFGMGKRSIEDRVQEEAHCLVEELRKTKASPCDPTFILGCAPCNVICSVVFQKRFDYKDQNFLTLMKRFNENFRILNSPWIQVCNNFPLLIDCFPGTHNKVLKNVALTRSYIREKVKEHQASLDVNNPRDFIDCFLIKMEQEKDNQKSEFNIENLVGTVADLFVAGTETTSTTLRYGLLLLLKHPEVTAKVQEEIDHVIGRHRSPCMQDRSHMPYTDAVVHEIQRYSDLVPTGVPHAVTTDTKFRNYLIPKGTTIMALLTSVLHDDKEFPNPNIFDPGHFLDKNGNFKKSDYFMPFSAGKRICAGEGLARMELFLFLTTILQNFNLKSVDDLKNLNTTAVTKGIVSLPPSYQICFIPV
OBSERVED PROPERTY: IC50

Query string: Reported IC50 for UniProt:P10632, given O=C1C=C(c2c(-n3cnnn3)ccc(Cl)c2F)C[C@H]2CC[C@@H](c3ncc(-c4ccnc(CO)c4F)[nH]3)N12 ?
Result string: > 20 µM

----------
assay: Rat PK study; assay type: in vivo, Sprague-Dawley rats; conditions: male, Sprague-Dawley, plasma, PO, 0.5% HPMC at 10 mg/kg, read-out: t1/2 (PO) (converted)
OBSERVED PROPERTY: half-life (h)
Just the number please, in h, no unit attached.

Query string: Dear colleague, I am looking for the recorded half-life of the following compound: O=C1C=C(c2c(-n3cnnn3)ccc(Cl)c2F)C[C@H]2CC[C@@H](c3ncc(-c4ccnc(CO)c4F)[nH]3)N12
Result string: 2.66

----------
target: HERG current (Homo sapiens); assay: hERG assay, whole-cell voltage clamp in HEK293 cells; conditions: HEK293 with stable transfection of HERG, 5 minutes of drug application
Sequence (Q12809 whole entry): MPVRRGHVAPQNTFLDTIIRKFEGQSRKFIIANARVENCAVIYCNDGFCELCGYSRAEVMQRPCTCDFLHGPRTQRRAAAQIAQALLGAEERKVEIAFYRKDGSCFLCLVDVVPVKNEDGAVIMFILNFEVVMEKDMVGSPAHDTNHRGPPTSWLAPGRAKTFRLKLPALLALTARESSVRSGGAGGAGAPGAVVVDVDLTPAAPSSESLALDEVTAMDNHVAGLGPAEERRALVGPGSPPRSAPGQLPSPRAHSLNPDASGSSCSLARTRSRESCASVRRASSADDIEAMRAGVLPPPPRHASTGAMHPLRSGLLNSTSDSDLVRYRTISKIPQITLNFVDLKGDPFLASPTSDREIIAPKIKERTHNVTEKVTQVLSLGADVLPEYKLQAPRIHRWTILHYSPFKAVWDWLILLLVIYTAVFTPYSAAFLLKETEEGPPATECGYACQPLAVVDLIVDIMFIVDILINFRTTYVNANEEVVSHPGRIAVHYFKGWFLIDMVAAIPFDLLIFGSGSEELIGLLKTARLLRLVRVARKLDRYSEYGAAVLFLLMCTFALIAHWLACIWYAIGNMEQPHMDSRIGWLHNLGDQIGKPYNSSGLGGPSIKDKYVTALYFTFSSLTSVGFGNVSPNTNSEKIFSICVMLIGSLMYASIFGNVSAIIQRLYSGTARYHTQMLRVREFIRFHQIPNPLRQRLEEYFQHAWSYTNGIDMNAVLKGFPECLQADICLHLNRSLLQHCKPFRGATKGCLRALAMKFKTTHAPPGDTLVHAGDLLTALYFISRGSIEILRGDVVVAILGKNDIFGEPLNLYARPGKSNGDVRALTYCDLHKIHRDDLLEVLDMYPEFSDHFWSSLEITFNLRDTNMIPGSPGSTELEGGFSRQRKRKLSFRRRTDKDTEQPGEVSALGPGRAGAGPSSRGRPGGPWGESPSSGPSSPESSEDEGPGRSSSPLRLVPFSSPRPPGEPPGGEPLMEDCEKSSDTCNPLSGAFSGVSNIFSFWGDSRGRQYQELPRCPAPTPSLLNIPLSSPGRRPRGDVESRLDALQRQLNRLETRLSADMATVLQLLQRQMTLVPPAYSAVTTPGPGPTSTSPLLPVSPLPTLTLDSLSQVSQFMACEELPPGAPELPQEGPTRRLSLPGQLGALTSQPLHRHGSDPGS
OBSERVED PROPERTY: IC50

Query string: Dear colleague, I am looking for the recorded IC50 of the following compound: O=C1C=C(c2c(-n3cnnn3)ccc(Cl)c2F)C[C@H]2CC[C@@H](c3ncc(-c4ccnc(CO)c4F)[nH]3)N12 [Compound of formula (I-A)]
Result string: > 30 µM

----------
Test: Rat PK study
Assay type: in vivo, Sprague-Dawley rats
Details: male, Sprague-Dawley, plasma, IV, 20% HPbCD at 2 mg/kg
Method: Biological Example 5: PK Studies Animals: Male Sprague-Dawley rats (7-8 weeks old, body weight 250-300 g) were kept in plastic cages with free access to standard rat diet (Keaoxieli, Beijing, China) and water. […] LC-MS/MS analysis: The analyte was assayed by a liquid chromatography coupled with tandem mass spectrometry (LC-MS/MS) method. […] A multiple reaction monitoring (MRM) method was selected for quantitative analysis. […]
OBSERVED PROPERTY: clearance (mL/min/kg)
Just the number please, in mL/min/kg, no unit attached.

Query string: Dear colleague, I am looking for the recorded clearance of the following compound: O=C1C=C(c2c(-n3cnnn3)ccc(Cl)c2F)C[C@H]2CC[C@@H](c3ncc(-c4ccnc(CO)c4F)[nH]3)N12 [Compound of formula (I-A)]
Result string: 19.6

----------
molecular target: CYP2C19 (Homo sapiens)
Sequence (P33261 whole entry): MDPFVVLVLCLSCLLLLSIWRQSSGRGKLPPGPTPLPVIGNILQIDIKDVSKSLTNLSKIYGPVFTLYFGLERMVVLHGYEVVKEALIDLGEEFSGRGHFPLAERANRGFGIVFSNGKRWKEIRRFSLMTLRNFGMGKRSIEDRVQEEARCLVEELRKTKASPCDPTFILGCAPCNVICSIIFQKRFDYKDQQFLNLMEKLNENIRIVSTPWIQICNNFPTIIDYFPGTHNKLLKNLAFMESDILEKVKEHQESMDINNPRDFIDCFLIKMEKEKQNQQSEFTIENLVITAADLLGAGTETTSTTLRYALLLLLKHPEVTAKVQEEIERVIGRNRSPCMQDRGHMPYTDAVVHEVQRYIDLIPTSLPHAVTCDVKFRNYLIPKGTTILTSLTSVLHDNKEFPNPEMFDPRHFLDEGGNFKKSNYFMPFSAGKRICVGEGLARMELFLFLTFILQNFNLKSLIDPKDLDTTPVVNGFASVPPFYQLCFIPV
OBSERVED PROPERTY: IC50

Query string: Dear colleague, I am looking for the recorded IC50 of the following compound: O=C1C=C(c2c(-n3cnnn3)ccc(Cl)c2F)C[C@H]2CC[C@@H](c3ncc(-c4ccnc(CO)c4F)[nH]3)N12 [Compound of formula (I-A)]
Result string: > 20 µM

----------
target: CYP2D6 (Homo sapiens, UniProt P10635)
Sequence (P10635 whole entry): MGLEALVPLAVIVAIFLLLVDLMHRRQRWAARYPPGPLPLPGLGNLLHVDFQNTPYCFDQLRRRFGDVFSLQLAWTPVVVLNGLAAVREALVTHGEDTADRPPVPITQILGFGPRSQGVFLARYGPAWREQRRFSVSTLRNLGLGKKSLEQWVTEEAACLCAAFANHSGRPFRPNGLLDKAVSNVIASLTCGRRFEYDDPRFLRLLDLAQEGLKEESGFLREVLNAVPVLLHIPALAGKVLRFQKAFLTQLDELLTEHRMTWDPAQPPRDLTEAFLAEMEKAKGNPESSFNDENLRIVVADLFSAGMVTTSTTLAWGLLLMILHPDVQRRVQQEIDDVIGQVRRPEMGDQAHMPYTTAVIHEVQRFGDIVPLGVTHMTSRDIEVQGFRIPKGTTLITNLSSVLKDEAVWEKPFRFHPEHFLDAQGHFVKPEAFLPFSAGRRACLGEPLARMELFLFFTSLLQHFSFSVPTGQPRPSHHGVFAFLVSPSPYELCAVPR
pIC50: −log10 of the molar value.
OBSERVED PROPERTY: pIC50

Query string: Reported pIC50 for CYP2D6 (Homo sapiens, UniProt P10635), given O=C1C=C(c2c(-n3cnnn3)ccc(Cl)c2F)C[C@H]2CC[C@@H](c3ncc(-c4ccnc(CO)c4F)[nH]3)N12 [Compound of formula (I-A)] ?
Result string: < 4.70
